Can you tell me IC50 for the items I'm about to list?
system.under.test: IL-17A/A (Homo sapiens, UniProt Q16552)
Construct: purchased Genscript Z03228
Sequence (Q16552 24-155): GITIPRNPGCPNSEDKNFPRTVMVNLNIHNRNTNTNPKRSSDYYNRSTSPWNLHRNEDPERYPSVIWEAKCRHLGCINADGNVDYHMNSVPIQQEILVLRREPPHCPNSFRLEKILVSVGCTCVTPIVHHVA
test.method.notes: HEK-Blue IL-17A/A inhibition assay (SEAP reporter)
Type: cell-based
applied.conditions: HEK-Blue cells (HEK 293 expressing IL-17RA, IL-17RC, Act1); IL-17A/A stimulation; 20 hours; SEAP read at A630; 4-parameter fit

Solved entries:
# compound, IC50
measured = [
    ("COC(=O)Nc1cc(NC(=O)[C@@H](NC(=O)c2ccnn2C(C)C)C(C2CC2)C2CC2)c(F)cc1C(C)C(=O)NCC(F)(F)F (single isomer, unassigned) [Compound 161]", "< 100 nM"),
    ("Cc1cc(NC(=O)[C@@H](NC(=O)c2nonc2C)C2CCC(F)(F)CC2)c(F)cc1C(C)C(=O)N(C)CC(F)(F)F (stereo partly drawn)", "100 to 1000 nM"),
    ("CCC(C(=O)NCC(F)(F)F)c1ccc(NC(=O)[C@@H](NC(=O)c2ccnn2C(C)C)C(C2CC2)C2CC2)c(F)c1 (single isomer, unassigned) [Compound 149]", "100 to 1000 nM"),
    ("CC(C)n1nccc1C(=O)N[C@H](C(=O)Nc1ccc([C@H](C)C(=O)N[C@H](C)C(F)(F)F)cc1F)C(C1CC1)C1CC1", "> 1000 nM"),
]

For every listed record, write down its IC50.
1. CC(C(=O)NCC(F)(F)F)c1cc(F)c(NC(=O)[C@@H](NC(=O)c2ccnn2C)C(C2CC2)C2CC2)cc1OC(F)(F)F (stereo partly drawn) [Compound 247]
2. C=Cc1cc(NC(=O)[C@@H](NC(=O)c2ccnn2C(C)C)C(C2CC2)C2CC2)c(F)cc1C(C)C(=O)NCC(F)(F)F (mixture of isomers)

Response line:
> 1000 nM
< 100 nM

The values you see were collected from patent US20240376056A1.
